Reference source: patent US20200339702A1

# TEST TARGET: T1, rhesus monkey ERBB3 His tag, monomeric (rhesus monkey (Macaca mulatta), UniProt P21860 20-643 (human entry), limits assumed)
# T1 chain: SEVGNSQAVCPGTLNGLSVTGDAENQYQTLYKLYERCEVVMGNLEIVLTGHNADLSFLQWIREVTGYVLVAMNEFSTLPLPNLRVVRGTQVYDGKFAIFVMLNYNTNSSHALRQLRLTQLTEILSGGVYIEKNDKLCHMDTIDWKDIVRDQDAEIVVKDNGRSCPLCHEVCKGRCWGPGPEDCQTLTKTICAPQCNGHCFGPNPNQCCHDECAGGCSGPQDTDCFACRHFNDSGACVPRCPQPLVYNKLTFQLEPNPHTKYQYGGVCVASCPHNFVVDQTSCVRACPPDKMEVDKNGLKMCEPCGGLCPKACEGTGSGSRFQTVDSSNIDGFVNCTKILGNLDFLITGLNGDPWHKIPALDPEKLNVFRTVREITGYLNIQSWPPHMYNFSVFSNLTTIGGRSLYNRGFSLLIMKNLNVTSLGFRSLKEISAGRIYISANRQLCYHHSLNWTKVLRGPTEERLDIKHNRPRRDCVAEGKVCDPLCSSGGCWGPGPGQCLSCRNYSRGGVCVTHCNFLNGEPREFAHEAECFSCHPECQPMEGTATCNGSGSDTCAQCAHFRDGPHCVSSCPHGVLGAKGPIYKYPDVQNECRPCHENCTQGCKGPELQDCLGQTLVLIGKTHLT
# EXPERIMENT DESCRIPTION: SPR (Biacore), captured IgG, monomeric ERBB3-His analyte
MEASUREMENT LABEL: Kd (pM)
Could you give me the number in pM? Just the number is fine.

// below: answered binders
- MH5 IgG1null (antibody, V domains shown, Designer (Maximally Humanized) clone; Human IgG1null and human Ckappa) VH: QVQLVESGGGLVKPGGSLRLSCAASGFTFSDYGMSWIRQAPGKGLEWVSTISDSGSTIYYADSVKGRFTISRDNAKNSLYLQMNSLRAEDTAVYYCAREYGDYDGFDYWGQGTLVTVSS VL: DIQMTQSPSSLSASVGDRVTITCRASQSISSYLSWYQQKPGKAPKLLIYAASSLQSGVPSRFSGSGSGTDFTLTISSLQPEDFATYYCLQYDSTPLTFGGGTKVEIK: 510
- 15E02 IgG1null (antibody, V domains shown, Human IgG1null and human Ckappa) VH: QVQLVESGGGLVKPGGSLRLSCAASGFTFSDYGMSWIRQAPGKGLEWVSTISDSGTTIYYADNVKGRFTISRDNAKNSLYLQMNSLRAEDTAVYYCAREYGDYDGFDYWGQGTLVTVSS VL: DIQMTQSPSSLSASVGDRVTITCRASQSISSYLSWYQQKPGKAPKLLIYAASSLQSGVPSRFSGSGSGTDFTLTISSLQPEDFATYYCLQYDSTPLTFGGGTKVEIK: 2500
- MH4 IgG1null (antibody, V domains shown, Designer (Maximally Humanized) clone; Human IgG1null and human Ckappa) VH: QVQLVESGGGLVKPGGSLRLSCAASGFTFSDYGMSWIRQAPGKGLEWVSTISDSGSYIYYADSVKGRFTISRDNAKNSLYLQMNSLRAEDTAVYYCAREWGDYDGFDEWGQGTLVTVSS VL: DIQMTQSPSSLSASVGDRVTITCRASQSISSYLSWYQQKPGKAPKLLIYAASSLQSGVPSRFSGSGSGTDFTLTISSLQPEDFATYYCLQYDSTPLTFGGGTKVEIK: 210

input: Entry 11H02 IgG1null (antibody, V domains shown, Human IgG1null and human Ckappa) VH: QVQLVESGGGLVKPGGSLRLSCAASGFTFSDYGMSWIRQAPGKGLEWVSTISDSGSYTYYADSVKGRFTISRDNAKNSLYLQMNSLRAEDTAVYYCAREWGDYDGFDNWGQGTLVTVSS VL: DIQMTQSPSSLSASVGDRVTITCRASQIISSYLSWYQQKPGKAPKLLIYAASSLDSGVPSRFSGSGSGTDFTLTISSLQPEDFATYYCLQYYSTPLTFGGGTKVEIK needs its Kd filled in; supply it.
output: 2100

input: Entry 17H10 IgG1null (antibody, V domains shown, Human IgG1null and human Ckappa) VH: QVQLVESGGGLVKPGGSLRLSCAASGFTFSDYGMSWIRQAPGKGLEWVSTISDGGSYTYYADSVKGRFTISRDNAKNSLYLQMNSLRAEDTAVYYCAREWGDYDGFDEWGQGTLVTVSS VL: DIQMTQSPSSLSASVGDRVTITCRASQSISGYLSWYQQKPGKAPKLLIYAASTLQSGVPSRFSGSGSGTDFTLTISSLQPEDFATYYCLQYDSTPYTFGGGTKVEIK needs its Kd filled in; supply it.
output: 650

input: Entry 09H02 IgG1null (antibody, V domains shown, Human IgG1null and human Ckappa; also called 09HO2) VH: QVQLVESGGGLVKPGGSLRLSCAASGFTFSDYSMSWIRQAPGKGLEWVSTISDGGSYTYYPDSVKGRFTISRDNAKNSLYLQMNSLRAEDTAVYYCARELGDYDGFDYWGQGTLVTVSS VL: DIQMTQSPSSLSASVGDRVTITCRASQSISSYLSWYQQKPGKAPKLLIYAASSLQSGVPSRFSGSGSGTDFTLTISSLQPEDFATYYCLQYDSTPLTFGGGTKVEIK needs its Kd filled in; supply it.
output: 250

input: Entry 15D03 IgG1null (antibody, V domains shown, Human IgG1null and human Ckappa) VH: QVQLVESGGGLVKPGGSLRLSCAASGFTFSDYGMSWIRQAPGKGLEWVSTISDSGSYIYYADSVKGRFTISRDNAKNSLYLQMNSLRAEDTAVYYCAREWGDYDGFDHWGQGTLVTVSS VL: DIQMTQSPSSLSASVGDRVTITCRASQEISSYLSWYQQKPGKAPKLLIYAASSLQSGVPSRFSGSGSGTDFTLTISSLQPEDFATYYCLQYDSTPLTFGGGTKVEIK needs its Kd filled in; supply it.
output: 260

input: Entry MH1 IgG1null (antibody, V domains shown, Designer (Maximally Humanized) clone; Human IgG1null and human Ckappa) VH: QVQLVESGGGLVKPGGSLRLSCAASGFTFSDYGMSWIRQAPGKGLEWVSTISDSGSYIYYADSVKGRFTISRDNAKNSLYLQMNSLRAEDTAVYYCARELGDYDGFDYWGQGTLVTVSS VL: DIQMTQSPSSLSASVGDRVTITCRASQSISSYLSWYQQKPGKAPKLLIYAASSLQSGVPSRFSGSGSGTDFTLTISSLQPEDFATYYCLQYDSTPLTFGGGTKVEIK needs its Kd filled in; supply it.
output: 450

input: Entry h24C05 IgG1null (antibody, V domains shown, Human IgG1null (L234A, L235A, G237A) and human Ckappa; also called humanized 24C05) VH: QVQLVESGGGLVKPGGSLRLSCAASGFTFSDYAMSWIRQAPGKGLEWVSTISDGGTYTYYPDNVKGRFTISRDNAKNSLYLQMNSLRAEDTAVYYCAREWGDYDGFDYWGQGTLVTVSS VL: DIQMTQSPSSLSASVGDRVTITCRASQEISGYLSWFQQKPGKAPKSLIYAASTLDSGVPSRFSGSGSGTDFTLTISSLQPEDFATYYCLQYDSYPYTFGGGTKVEIK needs its Kd filled in; supply it.
output: 180

input: Entry MH2 IgG1null (antibody, V domains shown, Designer (Maximally Humanized) clone; Human IgG1null and human Ckappa) VH: QVQLVESGGGLVKPGGSLRLSCAASGFTFSDYGMSWIRQAPGKGLEWVSTISDSGSYIYYADSVKGRFTISRDNAKNSLYLQMNSLRAEDTAVYYCAREWGDYDGFDFWGQGTLVTVSS VL: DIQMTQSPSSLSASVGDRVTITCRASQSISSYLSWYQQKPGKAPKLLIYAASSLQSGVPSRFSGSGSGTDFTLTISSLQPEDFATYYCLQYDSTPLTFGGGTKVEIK needs its Kd filled in; supply it.
output: 230
